target: T1, IFN-αG (human, UniProt P01569 24-189); assay: ProteOn, one antigen concentration
T1 construct: also called IFN-α5; alpha G
Property measured: Kd (nM)
The figure you give is taken to be in nM; do not add the unit.

The examples below pair each entry with its known result.
[
  {
    "Binder": "IFWM3311 (antibody, V domains shown, VH IFWH591, VL IFWL1009; converted mAb; also called IFWB3046) VH: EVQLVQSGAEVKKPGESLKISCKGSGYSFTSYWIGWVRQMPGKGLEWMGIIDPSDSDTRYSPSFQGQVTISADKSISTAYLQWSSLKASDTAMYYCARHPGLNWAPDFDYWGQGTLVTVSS VL: DIQMTQSPSSLSASVGDRVTITCRASQSIDDFLNWYQQKPGKAPKLLIYFASSLQSGVPSRFSGSGSGTDFTLTISSLQPEDFATYYCQQSHTLPLTFGQGTKVEIK",
    "Units symbol": "nM",
    "Kd": 0.056
  },
  {
    "Binder": "IFWM3317 (antibody, V domains shown, VH IFWH591, VL IFWL1026; converted mAb; also called IFWB3052) VH: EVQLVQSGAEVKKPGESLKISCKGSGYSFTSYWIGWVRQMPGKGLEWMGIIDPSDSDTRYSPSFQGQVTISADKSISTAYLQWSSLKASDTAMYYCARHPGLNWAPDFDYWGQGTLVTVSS VL: DIQMTQSPSSLSASVGDRVTITCRASQSISKFLNWYQQKPGKAPKLLIYFASSLQSGVPSRFSGSGSGTDFTLTISSLQPEDFATYYCQQSYDFPITFGQGTKVEIK",
    "Units symbol": "nM",
    "Kd": 0.126
  }
]

Please look at the following binder next.
Reported Kd ( IFWM3349 (antibody, V domains shown, VH IFWH624, VL IFWL1007; converted mAb; also called IFWB3084) VH: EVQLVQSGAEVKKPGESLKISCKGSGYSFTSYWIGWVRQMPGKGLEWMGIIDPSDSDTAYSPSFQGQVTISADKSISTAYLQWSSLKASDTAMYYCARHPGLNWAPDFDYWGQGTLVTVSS VL: DIQMTQSPSSLSASVGDRVTITCRASQSIGKSLNWYQQKPGKAPKLLIYFASSLQSGVPSRFSGSGSGTDFTLTISSLQPEDFATYYCQQSYDFPLTFGQGTKVEIK ) = 0.065

Where do these numbers come from? They come from patent US20150368338A1.
